Method notes: Stability of compound in human blood plasma spiked with Pseudomonas aeruginosa PA14 matrix assessed as hydrolysis of prodrug and measured upto 3 hrs by HPLC-MS/MS analysis
Assay type: ADME, cell-free
Reported metric: Stability

These solved cases illustrate the format of a correct answer.
Record smiles	Stability
CC(C)C[C@H](NC(=O)CNC(=O)[C@H](C)NC(=O)c1ccc(S[C@@H]2O[C@H](CO)[C@H](O)[C@H](O)[C@H]2O)cc1)C(=O)N[C@@H](C)C(=O)NC[C@@H]1CCN(c2cc3c(cc2F)c(=O)c(C(=O)O)cn3C2CC2)C1	Stable
CC(C)C[C@H](NC(=O)CNC(=O)[C@H](C)NC(=O)c1ccc(S(=O)(=O)NC[C@H]2O[C@@H](C)[C@@H](O)[C@@H](O)[C@@H]2O)cc1)C(=O)N[C@@H](C)C(=O)N1CCN(c2cc3c(cc2F)c(=O)c(C(=O)O)cn3C2CC2)CC1	Stable
CC(C)C[C@H](NC(=O)CNC(=O)[C@H](C)NC(=O)c1ccc(S[C@@H]2O[C@H](CO)[C@H](O)[C@H](O)[C@H]2O)cc1)C(=O)N[C@@H](C)C(=O)N[C@H]1CCN(c2cc3c(cc2F)c(=O)c(C(=O)O)cn3C2CC2)C1	Stable
CC(C)C[C@H](NC(=O)CNC(=O)[C@H](C)NC(=O)c1ccc(S(=O)(=O)NC[C@H]2O[C@@H](C)[C@@H](O)[C@@H](O)[C@@H]2O)cc1)C(=O)N[C@@H](C)C(=O)N[C@H]1CCN(c2cc3c(cc2F)c(=O)c(C(=O)O)cn3C2CC2)C1	Stable
CC(C)C[C@H](NC(=O)CNC(=O)[C@H](C)NC(=O)c1ccc(S[C@@H]2O[C@H](CO)[C@H](O)[C@H](O)[C@H]2O)cc1)C(=O)N[C@@H](C)C(=O)N1CCN(c2cc3c(cc2F)c(=O)c(C(=O)O)cn3C2CC2)CC1	Stable

For `CC(C)C[C@H](NC(=O)CNC(=O)[C@H](C)NC(=O)c1ccc(S(=O)(=O)NC[C@H]2O[C@@H](C)[C@@H](O)[C@@H](O)[C@@H]2O)cc1)C(=O)N[C@@H](C)C(=O)NC[C@@H]1CCN(c2cc3c(cc2F)c(=O)c(C(=O)O)cn3C2CC2)C1` , write its Stability.
Stable
